Tested on: Metaphire posthuma
PROCEDURE TEXT: Anthelmintic activity against Pheretima posthuma assessed as time taken for parasite death at 0.1% w/v
Assay type: functional
So I've got a bunch of compounds here, and I need their Time values.
Lab book: enter the figure in min, no units written.

Prompt: Answer with the recorded Time of CCCSc1ccc2[nH]c(NC(=O)OC)nc2c1 [ALBENDAZOLE] only.
Response: 60.36

Prompt: Answer with the recorded Time of CSc1nc(-c2ccc(Cl)cc2)c(C#N)c(=O)n1C only.
Response: 60.96

Prompt: Answer with the recorded Time of CCOC(=O)c1cnn(-c2nc(-c3ccco3)c(C#N)c(=O)n2C)c1N only.
Response: 58.76

Prompt: Answer with the recorded Time of Cn1c(NN)nc(-c2ccc(Cl)cc2)c(C#N)c1=O only.
Response: 58.3

Prompt: Answer with the recorded Time of Cn1c(NN)nc(-c2cccs2)c(C#N)c1=O only.
Response: 58.24
